Molecular target: DPP2 (Homo sapiens (Human), UniProt Q9UHL4)
Experiment: DPP2 enzyme inhibition, IC50 measurement (Lys-Ala-pNA release)
Assay type: biochemical
Conditions: Table 1; mean ± SD (n = 3)
pIC50: −log10 of the molar value.
property: pIC50

>>> experimentalresult("N#C[C@@H]1CCCN1C(=O)CNC12CC3CC(C1)CC(OCc1ccccc1)(C3)C2")
"< 5.30"
>>> experimentalresult("N#C[C@@H]1CCCN1C(=O)CNC12CC3CC(C1)CC(OCc1ccc(F)cc1F)(C3)C2")
"< 5.30"
>>> experimentalresult("N#C[C@@H]1[C@@H]2C[C@@H]2CN1C(=O)CNC12CC3CC(C1)CC(OCc1ccccc1)(C3)C2")
"< 5.30"
>>> experimentalresult("C=C1C[C@@H](C#N)N(C(=O)CNC23CC4CC(C2)CC(OCc2ccccc2)(C4)C3)C1")
5.90
>>> experimentalresult("C=C1C[C@@H](C#N)N(C(=O)CNC23CC4CC(CC(O)(C4)C2)C3)C1")
"< 5.30"
>>> experimentalresult("CCCCOC12CC3CC(CC(NCC(=O)N4C[C@@H](N=[N+]=[N-])C[C@H]4C#N)(C3)C1)C2")
"< 5.30"
>>> experimentalresult("C=C1C[C@@H](C#N)N(C(=O)CNC23CC4CC(C2)CC(OCCCC)(C4)C3)C1")
5.92
>>> experimentalresult("N#C[C@@H]1C[C@H](N=[N+]=[N-])CN1C(=O)CNC12CC3CC(C1)CC(OCc1ccc(F)cc1F)(C3)C2")
"< 5.30"

###

Biological target: DPP9 (Homo sapiens (Human))
Sequence (Q86TI2 whole entry): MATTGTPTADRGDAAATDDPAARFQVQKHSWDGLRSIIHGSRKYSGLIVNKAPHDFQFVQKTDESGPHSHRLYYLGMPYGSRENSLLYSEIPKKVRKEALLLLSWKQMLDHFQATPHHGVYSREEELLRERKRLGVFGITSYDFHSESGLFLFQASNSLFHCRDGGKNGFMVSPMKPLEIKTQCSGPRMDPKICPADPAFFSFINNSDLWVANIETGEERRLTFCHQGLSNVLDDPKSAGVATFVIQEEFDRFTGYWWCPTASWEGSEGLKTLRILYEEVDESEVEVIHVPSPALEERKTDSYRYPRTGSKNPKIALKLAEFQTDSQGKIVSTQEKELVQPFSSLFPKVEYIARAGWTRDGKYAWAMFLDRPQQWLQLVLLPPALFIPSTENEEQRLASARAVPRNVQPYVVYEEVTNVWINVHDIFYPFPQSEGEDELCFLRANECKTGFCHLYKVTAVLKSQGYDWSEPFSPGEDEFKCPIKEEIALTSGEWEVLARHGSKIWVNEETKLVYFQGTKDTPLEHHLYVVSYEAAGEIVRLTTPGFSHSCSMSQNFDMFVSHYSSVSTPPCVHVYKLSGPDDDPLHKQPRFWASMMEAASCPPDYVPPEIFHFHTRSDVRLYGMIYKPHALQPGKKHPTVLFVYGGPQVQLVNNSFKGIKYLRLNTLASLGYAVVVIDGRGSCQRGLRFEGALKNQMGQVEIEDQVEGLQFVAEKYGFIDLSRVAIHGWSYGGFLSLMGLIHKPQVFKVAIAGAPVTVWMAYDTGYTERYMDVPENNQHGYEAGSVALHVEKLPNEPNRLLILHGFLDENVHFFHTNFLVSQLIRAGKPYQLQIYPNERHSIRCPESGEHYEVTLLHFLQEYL
Assay: DPP9 enzyme inhibition, IC50 measurement (Ala-Pro-pNA release)
Format: biochemical
Conditions: Table 3; mean ± SD (n = 3); read-out: DPP9 IC50 ± SD
property: IC50

>>> experimentalresult("O=C1CCC(N2C(=O)c3cccc(NCCOCCNC(=O)NC45CC6CC(CC(NCC(=O)N7Cc8ccc(F)cc8C7)(C6)C4)C5)c3C2=O)C(=O)N1 (stereo not shown)")
"2.4 nM"
>>> experimentalresult("COc1ccc2c(c1)CN(C(=O)CNC13CC4CC(C1)CC(NC(=O)OC(C)(C)C)(C4)C3)C2")
"309 nM"
>>> experimentalresult("O=C(NCc1ccccc1)OC12CC3CC(CC(NCC(=O)N4Cc5ccccc5C4)(C3)C1)C2")
"73.8 nM"
>>> experimentalresult("COC(=O)[C@H](C)NC(=O)OC12CC3CC(CC(NCC(=O)N4Cc5ccc(F)cc5C4)(C3)C1)C2")
"93.8 nM"

###

Biological target: DPP8 (Homo sapiens (Human), UniProt Q6V1X1)
Sequence (Q6V1X1 whole entry): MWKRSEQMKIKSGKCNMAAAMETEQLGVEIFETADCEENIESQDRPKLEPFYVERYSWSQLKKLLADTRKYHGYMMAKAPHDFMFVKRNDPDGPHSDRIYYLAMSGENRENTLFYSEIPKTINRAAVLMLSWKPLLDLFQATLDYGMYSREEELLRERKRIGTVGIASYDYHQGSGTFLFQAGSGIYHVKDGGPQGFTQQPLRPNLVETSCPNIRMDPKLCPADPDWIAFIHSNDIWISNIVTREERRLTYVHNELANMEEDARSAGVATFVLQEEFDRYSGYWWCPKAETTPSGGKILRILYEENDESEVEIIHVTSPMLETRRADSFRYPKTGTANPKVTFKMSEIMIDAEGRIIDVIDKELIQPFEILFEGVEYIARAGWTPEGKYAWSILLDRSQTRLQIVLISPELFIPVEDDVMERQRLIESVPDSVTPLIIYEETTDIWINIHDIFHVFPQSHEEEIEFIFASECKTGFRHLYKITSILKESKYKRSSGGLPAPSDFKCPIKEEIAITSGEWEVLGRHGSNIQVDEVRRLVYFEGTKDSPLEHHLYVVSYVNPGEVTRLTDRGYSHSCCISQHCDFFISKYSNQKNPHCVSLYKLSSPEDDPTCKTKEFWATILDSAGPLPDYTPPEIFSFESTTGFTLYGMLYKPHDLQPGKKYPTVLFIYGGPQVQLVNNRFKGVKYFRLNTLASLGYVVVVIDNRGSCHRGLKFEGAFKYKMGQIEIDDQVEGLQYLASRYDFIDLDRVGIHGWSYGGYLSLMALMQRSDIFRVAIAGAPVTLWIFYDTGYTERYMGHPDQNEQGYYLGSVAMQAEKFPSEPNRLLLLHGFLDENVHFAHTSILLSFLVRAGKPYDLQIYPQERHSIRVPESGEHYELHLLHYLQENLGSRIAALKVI
Assay: DPP8 enzyme inhibition, IC50 measurement (Ala-Pro-pNA release)
Format: biochemical
Conditions: Table 4; standard method; read-out: IC50 DPP8
pIC50: −log10 of the molar value.
property: pIC50

>>> experimentalresult("Cl.O=C(NC12CC3CC(CC(NCC(=O)N4Cc5ccc(F)cc5C4)(C3)C1)C2)c1cccnc1 [Compound 98, hydrochloride]")
6.57
>>> experimentalresult("CC(C)(C)NC(=O)NC12CC3CC(CC(NCC(=O)N4Cc5cc(F)c(F)cc5C4)(C3)C1)C2.Cl [Compound 85, hydrochloride]")
5.88
>>> experimentalresult("CC(C)(C)CC(=O)NC12CC3CC(CC(NCC(=O)N4Cc5cc(F)c(F)cc5C4)(C3)C1)C2 [Compound 86]")
5.89
>>> experimentalresult("Cl.O=C(NC12CC3CC(CC(NCC(=O)N4Cc5ccc(F)cc5C4)(C3)C1)C2)c1ccc(-c2ccccn2)cc1 [Compound 90, hydrochloride]")
6.90

Where do the numbers come from? From patent US20250353833A1.
